system_name: T1, recombinant soluble human GARP-TGFβ1 complex (human, UniProt Q14392 20-628; P01137 30-390)
T1 construct: co-expressed in HEK293E, purified by the Strep-Tag; TGFβ consists of LAP and mature TGFβ; also called shGARP-TGFβ; rhGARP-TGFβ
run_description: SPR (Biacore), hGARP-TGFβ1 immobilised
experimental_endpoint: fold improvement of KD (reference LHG-10-D) (fold)

- LHG-10-D (antibody, human IgG1, V domains shown) VH: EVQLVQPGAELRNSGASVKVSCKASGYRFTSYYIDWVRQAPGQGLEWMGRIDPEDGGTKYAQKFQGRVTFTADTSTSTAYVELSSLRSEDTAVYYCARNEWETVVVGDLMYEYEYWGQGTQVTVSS VL: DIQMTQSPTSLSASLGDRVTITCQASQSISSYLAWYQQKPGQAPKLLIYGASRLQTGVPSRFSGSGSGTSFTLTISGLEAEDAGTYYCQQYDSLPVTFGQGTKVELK: 1
- LHG-10.4-D (antibody, human IgG1, V domains shown) VH: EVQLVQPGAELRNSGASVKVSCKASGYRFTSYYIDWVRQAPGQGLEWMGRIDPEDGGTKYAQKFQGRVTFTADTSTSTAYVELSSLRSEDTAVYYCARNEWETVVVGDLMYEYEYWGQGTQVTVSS VL: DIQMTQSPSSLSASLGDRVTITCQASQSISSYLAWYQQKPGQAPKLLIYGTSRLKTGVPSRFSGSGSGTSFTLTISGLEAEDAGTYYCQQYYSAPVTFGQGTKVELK: 5.7
- LHG-10.5-D (antibody, human IgG1, V domains shown) VH: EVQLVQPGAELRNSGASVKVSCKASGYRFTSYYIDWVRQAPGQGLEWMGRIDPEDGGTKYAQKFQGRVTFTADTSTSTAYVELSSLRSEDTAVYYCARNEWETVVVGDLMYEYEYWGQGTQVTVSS VL: DIQMTQSPSSLSPSLGDRVTITCQASQTISSFLAWYHQKPGQPPKLLIYRASIPQTGVPSRFSGSGSGTSFTLTIGGLEAEDAGTYYCQQYVSAPPTFGQGTKVELK: 6.6
- LHG-10.6-D (antibody, human IgG1, V domains shown, also called LHG-10.6N297Q) VH: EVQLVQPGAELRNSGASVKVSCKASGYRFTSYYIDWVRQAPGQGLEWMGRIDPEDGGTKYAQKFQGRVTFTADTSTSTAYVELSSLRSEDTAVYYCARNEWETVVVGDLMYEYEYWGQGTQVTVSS VL: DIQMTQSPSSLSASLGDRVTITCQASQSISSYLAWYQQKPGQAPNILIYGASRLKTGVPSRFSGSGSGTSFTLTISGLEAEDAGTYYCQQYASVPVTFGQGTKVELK: 8.6
- LHG-10.3-D (antibody, human IgG1, V domains shown) VH: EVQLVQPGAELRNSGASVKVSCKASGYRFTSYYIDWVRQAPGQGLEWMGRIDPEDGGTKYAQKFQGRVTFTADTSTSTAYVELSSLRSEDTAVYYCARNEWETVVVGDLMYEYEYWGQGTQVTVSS VL: DIQMTQSPSSLSASLGDRVTITCQASQSIVSYLAWYQQKPGQAPKLLIYGASRLQTGVPSRFSGSGSGTSFTLTISGLEAEDAGTYYCQQYASAPVTFGQGTGVELK: 8.3

Values from patent US20160251438A1
